Below is a list of entries, each paired with its recorded TGI value.
system: NCI-H460 lung; experiment: NCI tumour cell line growth inhibition, 48 h
Give just the numeric value; µM need not be written.

- O=C(c1ccccc1)c1ccc(COc2ccc(C(c3c(O)c4ccccc4oc3=O)c3c(O)c4ccccc4oc3=O)cc2)cc1: 48.6
- O=C(/C(=C/c1ccc([N+](=O)[O-])cc1)c1ccccc1)c1ccccc1: 5.93
- Cc1cc(NCc2cc(Nc3ccnc4cc(Cl)ccc34)ccc2F)nc(N2CCCC2)n1: 2.96

Shift focus to the following entry.
Need TGI, item "O=c1cc(-c2ccccc2)[nH]c2cc(O)ccc12" 33.3

---

Below is a list of entries, each paired with its recorded TGI value.
test system: NCI-H460 lung; test: NCI tumour cell line growth inhibition, 48 h
Give just the numeric value; µM need not be written.

* CN(C(=O)Cc1cc(Cl)c(Cl)cc1N=C=S)[C@H]1CCCC[C@@H]1N1CCCC1 | 22
* CCOc1ccc2nc(NC(=O)c3c/c(=N\NC(=O)C[N+](C)(C)C)c4ccc(O)cc4o3)sc2c1 | 13.4
* NC(=O)NN=C(CS)CS | 59

Need TGI, item "COc1ccc(-c2c(N)n(-c3nc4ccccc4s3)c(=O)c3cc([N+](=O)[O-])ccc23)cc1" 32.5

---

test system: OVCAR-8 ovarian; assay: NCI tumour cell line growth inhibition, 48 h
attribute measured: TGI

# count of solved cases: 2
* CCO[C@]12C[C@H](OC)[C@@]3(O)CC(C1[C@H]3OCc1ccccc1)C13C4C2[C@H](OC)C1[C@](COC)(CN4CC)[C@H](O)C[C@@H]3OC (some centres not stated) | > 100 µM
* C=CCOC1OC(CO[Si](C)(C)C(C)(C)C)C(OCc2ccccc2)C(OCc2ccccc2)C1OCc1ccccc1 (configuration not stated) | > 100 µM

Need TGI, item "Cn1c2c(cc(S(=O)(=O)c3ccccc3)c1=O)CCc1c-2cnn1-c1ccc(Cl)cc1" 6.22 µM

What would you report for "COC(=O)Cn1c2c(c3c(O)cccc31)C(=O)c1ccccc1-2" ? > 100 µM

What would you report for c1ccc2c(C3NCCc4[nH]cnc43)cccc2c1 (configuration not stated) ? > 100 µM

What would you report for CC1=C(N2CC2)C(=O)c2nc3n(c2C1=O)CCC3OC(=O)CCl (configuration not stated) ? 0.165 µM

What would you report for "CC1=NN(c2ccccc2)C(=O)/C1=C/c1ccc(O)cc1" ? > 100 µM

What would you report for "CNC(=O)OCc1c(COC(=O)NC)c(C)n(-c2ccc(Br)cc2)c1C" ? 24.8 µM

What would you report for COc1ccc(C(OCC2OC(n3ccc(NC(=O)c4ccccc4)nc3=O)C(O)C2O)(c2ccccc2)c2ccccc2)cc1 (configuration not stated) ? 3.22 µM

What would you report for "COC(=O)[C@@H]1CN(C(=O)CCc2ccccc2)C(=O)N1C(=O)OCc1ccccc1" ? > 100 µM

---

test system: SK-MEL-5 melanoma; assay: NCI tumour cell line growth inhibition, 48 h
attribute measured: TGI (µM)
Give just the numeric value; µM need not be written.

# count of solved cases: 3
• COc1ccc(-c2n[nH]nc2-c2cc(OC)c3c(c2OC)OCO3)cc1 = 17.7
• CCCCCCCCCCCCCCCCCC(=O)OCC(COC1OC(COP(=O)(O)O)C(O)C(O)C1O)OC(=O)CCCCCCCCCCCCCCCCC (stereo unspecified) = 16.6
• O=C(C1CCCCC1)[C@@H]1[C@]2(C(=O)NC3CCCCC32)[C@@H]2CCCN2[C@@]12C(=O)NC1CCC(Cl)CC12 (stereo partly specified) = 234

Shift focus to the following entry.
Need TGI, item COc1cc2cc(C(=O)N3CC(CCl)c4ccc(O)cc43)[nH]c2c(OC)c1OC (stereo unspecified) 0.000396

---

Below is a list of entries, each paired with its recorded TGI value.
tested on: SF-268 CNS; assay: NCI tumour cell line growth inhibition, 48 h

• O=C1C(=O)c2c(nc3ccc(Cl)cn23)-c2ccccc21 = 1.18 µM
• CCC(NC(C)c1ccccc1)C(O)c1ccc(OCc2ccccc2)c(OCc2ccccc2)c1 (stereo not given) = 36.4 µM
• COc1cc2c(c(OC)c1OC)C(=O)[C@H](O)[C@H]2NC(N)=O = > 100 µM
• CC1=C2C(=O)c3ccccc3C(=O)[C@H]2[C@H]2CCO[C@H]2O1 = 35.1 µM
• CC1CCCc2c(C#N)c(N)nc(-c3ccc(Cl)cc3)c21 (stereo not given) = > 100 µM
• CC1CC[C@@H](C(C)C)[C@H](Oc2nnc(C3OC(CO)C(O)C3O)o2)C1 (stereo not given in full) = > 100 µM

Need TGI, item C#CCOCC12C=CC(O1)C1C(=O)N(C)C(=O)C12 (stereo not given) > 100 µM

What would you report for "O=c1ccc2cc(O)c(O)cc2o1" ? > 100 µM

What would you report for "Cn1cnc2nc(Cl)nc(NC(C)(C)C(C)(C)O)c21" ? > 100 µM

What would you report for CCC1C(c2cc(OC)c(OC)c(OC)c2)c2cc3c(cc2OC1N1CCCC1)OCO3 (stereo not given) ? 33 µM

What would you report for "C=CC(=O)N1CCN(c2ccc3cccc(NC(=O)c4cnc(C)cn4)c3n2)CC1" ? 49.2 µM

What would you report for "CS(=O)(=O)Oc1cccc(/C=N/N=C(\N)NO)c1" ? > 100 µM

What would you report for "O=C(NCc1cccnc1)NCc1cccnc1" ? > 100 µM

---

test system: UACC-62 melanoma; assay: NCI tumour cell line growth inhibition, 48 h
attribute measured: TGI

# count of solved cases: 5
- CC1(C)CC(=O)c2c(nc3ccc4ccccc4c3c2-c2ccc(NC(=O)CCCC(=O)Nc3ccc(-c4c5c(nc6ccc7ccccc7c46)CC(C)(C)CC5=O)cc3)cc2)C1: > 100 µM
- CN(C)c1ccc(C=C2C(=O)OC(C)(C)OC2=O)cc1Br: > 100 µM
- C[C@@H]1CC[C@H]2C(COCCOCC3=C(C(F)(F)F)O[C@@H]4O[C@@]5(C)CC[C@H]6[C@H](C)CC[C@@H]3[C@@]46OO5)=C(C(F)(F)F)O[C@@H]3O[C@@]4(C)CC[C@@H]1[C@]32OO4: > 100 µM
- c1ccc(SC(CCCCC(Sc2ccccc2)Sc2ccccc2)Sc2ccccc2)cc1: > 100 µM
- CC1CCCc2c(C#N)c(N)nc(-c3ccc(Cl)cc3)c21 (stereo not drawn): 38.2 µM

Need TGI, item "O=c1oc2ccccc2c(Nc2ccc3c(c2)S(=O)(=O)c2ccccc2O3)c1[N+](=O)[O-]" 40 µM

What would you report for "COc1ccc(NC(=O)/C(=N\NC(=O)C[n+]2ccccc2)c2c(O)c3ccc(O)cc3oc2=O)c([N+](=O)[O-])c1" ? > 100 µM

What would you report for "C=CCOC(=O)/C(=C\c1ccc(OC)c(OC)c1)c1ccc(OC)c(OC)c1" ? > 100 µM

What would you report for O=C(N=S(NC(=O)c1ccccc1)C(Cl)(Cl)Cl)c1ccccc1 (stereo not drawn) ? > 100 µM

What would you report for "N#C/C(=C\c1c(-c2ccccc2)[nH]c2ccccc12)S(=O)(=O)c1ccccc1" ? 24.9 µM

What would you report for "CN(CCO)c1nc2c(c(=O)[nH]1)CCC2" ? > 100 µM

What would you report for "CN(C)CCCNC(=O)N/N=C/c1cccc([N+](=O)[O-])c1" ? > 100 µM

What would you report for "CCOc1ccc2nc(NC(=O)c3c/c(=N\NC(=O)C[N+](C)(C)C)c4ccc(O)cc4o3)sc2c1" ? 3.21 µM

What would you report for CC(=O)OC1C(O)COC(O[C@H]2CC[C@]34C[C@]35CC[C@]3(C)C([C@@]6(C)CC[C@@H](C(C)(C)O)O6)[C@@H](O)C[C@@]3(C)C5C[C@H](OC3OCC(O)C(O)C3O)[C@H]4C2(C)C)C1OC1OCC(O)C(O)C1O (stereo partly drawn) ? > 100 µM

What would you report for "Cn1c2c(cc(S(=O)(=O)c3ccccc3)c1=O)CCc1c-2cnn1-c1ccc(Cl)cc1" ? 5.07 µM

What would you report for CCC1C(c2cc(OC)c(OC)c(OC)c2)c2cc3c(cc2OC1N1CCCC1)OCO3 (stereo not drawn) ? 23.4 µM

What would you report for "Cc1c(/C=N/NC(=S)Nc2ccccc2Cl)c(=O)n(-c2ccccc2)n1C" ? > 100 µM

What would you report for "O=S(=O)(Sc1ccc(Cl)cc1)c1ccc(Cl)cc1" ? 31.4 µM

What would you report for "O=C(O)C1(P(=O)(O)O)CC1" ? > 100 µM

---

Below is a list of entries, each paired with its recorded TGI value.
tested on: DU-145 prostate; test: NCI tumour cell line growth inhibition, 48 h

* COc1cc2c(c(OC)c1OC)C(=O)[C@H](O)[C@H]2NC(N)=O | > 100 µM

Need TGI, item "O=c1oc2ccccc2c2c(=O)c3ccc(OC/C(=N/O)c4ccc(Cl)cc4)cc3oc12" 36.1 µM

What would you report for "C=CCOC(=O)/C(=C\c1ccc(OC)c(OC)c1)c1ccc(OC)c(OC)c1" ? > 100 µM

What would you report for "CN(C)c1ccc(/C=C\c2cccc[n+]2C)cc1" ? > 100 µM

What would you report for "CN(/N=C(\C(=O)O)c1ccccc1)C1=NCCCN1" ? > 100 µM

What would you report for CC1(CCC2C=CCC2)CCCNC1=S (stereo unspecified) ? > 10 µM

What would you report for "COCn1c2ccc(OC(C)=O)cc2c2c(=O)oc(N(C)C)nc21" ? > 100 µM

What would you report for "O=C(O)C/C=C/CC(=O)O" ? > 100 µM

What would you report for "C=CC(=O)N1CCN(c2ccc3cccc(NC(=O)c4cnc(C)cn4)c3n2)CC1" ? > 100 µM

What would you report for "CN1CCN(Cc2ccc(NC(=O)c3cncc(C#Cc4cnc(N)c5ccncc45)c3)cc2C(F)(F)F)CC1" ? 6.67 µM

What would you report for "Cc1c2cc[n+](CCN3CCCCC3)cc2c(C)c2c1[nH]c1ccc(O)cc12" ? 11.5 µM
